assay: rat acute oral toxicity; settings: in vivo
# binning rule on LD50: lower: < 500 mg/kg; middle: ≥ 500 mg/kg and < 2000 mg/kg; upper: ≥ 2000 mg/kg

Ask: Which LD50 band matches CCOP(=O)(OCC)OP(=O)(OCC)OCC ?
Reply: lower

Ask: Which LD50 band matches CN(C)S(=O)(=O)Cl ?
Reply: middle

Ask: Which LD50 band matches C=CC=O ?
Reply: lower

Ask: Which LD50 band matches C=C(C)[C@@H]1CC=C(C)C(=O)C1 ?
Reply: upper

###

experiment: GHS categories as the set defines them, by LD50: 1 up to 5, 2 up to 50, 3 up to 300, 4 up to 2000, 5 above 2000 mg/kg; settings: rat; in vivo; po
measured metric: GHS category
Reply with the value as a number alone.

Here are 3 molecules together with their reported answers.
In [3]: df
Out[3]:
                                   molecule  measured_metric  quantitative_readout
0     COc1ccccc1OC(=O)c1ccccc1Nc1cccc(C)c1C     GHS category                     5
1       O=C1CC(N2C(=O)c3ccccc3C2=O)CC(=O)N1     GHS category                     5
2  O=C(O)c1ccccc1N1C(=O)C(Cl)C1c1ccccc1 (stereo not given)     GHS category                     4

Ask: Tell me the measured GHS category of Nc1ccc(C(=O)NCCN2CCN(c3ccccn3)CC2)cc1 , please.
Reply: 5

Ask: Tell me the measured GHS category of COC1(C)CCCCCCCCCCC1 , please.
Reply: 5

Value source: the CATMoS acute toxicity set (Mansouri et al. 2021)
